melting point values for the compounds below.

[
  {
    "compound": "Cc1cc(N(C)C)ccc1C=Nc1cc(Cl)c(N=CN(C)C)c(Cl)c1",
    "value_observed": "64 to 65 °C"
  },
  {
    "compound": "CC(C)(C)NC(=O)C1CCN(C(=O)CCl)CC1",
    "value_observed": "140 to 142 °C"
  },
  {
    "compound": "CCC(C)(CC(=O)Nc1cccc(OCc2ccc3ccc(F)cc3n2)c1)C(=O)O (stereo unspecified)",
    "value_observed": "179 to 180 °C"
  }
]

Name the recorded melting point for O=C(O)c1cc(=O)c(Sc2ccc(Cl)cc2)co1 .
165 to 167 °C

Query CC1(C)Oc2c(c(=O)n(Cc3ccccc3)c3ccccc23)[C@@H](N2CCCC2=O)[C@@H]1O (relative stereo) next
> 260 °C

Query COc1cc(C)cc(Sc2cccc(F)c2C#N)c1 next
94 to 95 °C

Query COc1ccc(C=CC(=O)c2cccc(OC)c2OC)cc1Oc1ccccc1 next
63.3 to 64 °C

Query CCC(=O)NC1(c2ccccc2Cl)C(=O)N(Cc2ccc(C(=O)NC(C)(C)C)cc2OC)c2ccc(Cl)cc21 (stereo unspecified) next
249 °C

----------
melting point values for the compounds below.

Name the recorded melting point for CCN(CC)C(=O)Cc1c(-c2ccc(Br)cc2)nc2c(C)cc(C)nn12 .
171 to 175 °C

Query CC(C)CCCC(C)Cc1nc2c3ccsc3c3sccc3c2nc1CC(C)CCCC(C)C (centres undefined) next
57.5 to 58.7 °C

Query COc1ccc2nc(-c3ccccc3)cc(C(=O)Nc3ccc(CCCCN(C)Cc4ccc(OC)c(OC)c4)cc3)c2c1 next
148 °C

Query O=C(O)C[C@@H](NC(=O)CN1C[C@H](c2ccccc2)Oc2ccc(NC(=O)NCc3ccccc3)cc2C1=O)c1ccccc1 next
138 to 140 °C

Query CCCc1ccc(S(=O)(=O)c2ccc(F)cc2)cc1S(=O)(=O)NCCc1ccncc1 next
160 to 162 °C

Query CCCCOc1ccc(Oc2cc(=O)c3c(OCCCC)c(OC)c(OCCCC)cc3o2)cc1 next
62 to 63 °C

Query CNS(=O)(=O)c1cn(C)c2cc(Cl)ccc2c1=O next
220 to 223 °C

Query CCN(CC)CCN1C(=O)Nc2ccncc2C1c1ccccc1 (centres undefined) next
132 to 134 °C

----------
quantity_measured: melting point

Use these answered entries as a reference point.
[
  {
    "molecule": "CCOC(=O)Cc1ccc(C(=O)c2ccc([N+](=O)[O-])cc2)n1C",
    "melting point": "103 to 106 °C"
  },
  {
    "molecule": "CCOC(=O)C1=Cc2cc(-c3ccc(C(F)(F)F)cc3)ccc2OCC1",
    "melting point": "107 to 110 °C"
  },
  {
    "molecule": "Cc1nc(O)c(C)c(O)n1",
    "melting point": "300 °C"
  }
]

Name the recorded melting point for Nc1ccc(C(=O)C(=O)c2ccc(N)cc2)cc1 .
207 °C

Query CSc1nccc(-c2ccccc2)n1 next
87 to 89 °C

Query CC1OC(Cn2cncn2)(c2ccc(F)cc2F)C1(C)C (stereo not given) next
112 to 113 °C

Query Cc1c(-c2ccc(O)cc2)n(Cc2ccc(/C=C/C(N)=O)cc2)c2ccc(O)cc12 next
161 to 163 °C

----------
quantity_measured: melting point

Use these answered entries as a reference point.
[
  {
    "compound": "COC(=O)C=Cc1c(C(=O)OC)[nH]c2c(C)ccc(C)c12",
    "quantity_measured": "melting point",
    "value_observed": "135 to 136 °C"
  },
  {
    "compound": "Cc1nn2ccc3c(c2c1CO)CCO3",
    "quantity_measured": "melting point",
    "value_observed": "173 to 174 °C"
  },
  {
    "compound": "CN(C)CCc1c[nH]c2ccc(C=CC(=O)NCc3ccc([N+](=O)[O-])cc3)cc12",
    "quantity_measured": "melting point",
    "value_observed": "177 to 187 °C"
  },
  {
    "compound": "Cc1cccc(NC(=O)NC2N=C(C(C)C)c3ccccc3N(CC(=O)N3CC4CCC(CC4)C3)C2=O)c1 (stereo not given)",
    "quantity_measured": "melting point",
    "value_observed": "123 to 126 °C"
  }
]

Here's the next entry for you.
Name the recorded melting point for Cc1ccc(N2CCN(Cc3ccc4c(c3)OCC(=O)N4)CC2)cc1 .
208 to 210 °C

----------
melting point values for the compounds below.

Use these answered entries as a reference point.
[
  {
    "compound": "CN(Cc1ccccc1)CC1Nc2ccccc2Cn2cccc21 (stereo not drawn)",
    "melting point": "147 to 149 °C"
  },
  {
    "compound": "CCc1oc(-c2ccc(S(C)(=O)=O)cc2)c(Oc2ccc(F)cc2F)c(=O)c1C",
    "melting point": "200 °C"
  },
  {
    "compound": "Oc1cc(Cl)nc(Cl)c1",
    "melting point": "201 to 202 °C"
  }
]

Name the recorded melting point for OC1CCc2c(Br)cccc21 (single isomer, unassigned; (-)) .
81 °C

Query CCOC(=O)CCCCCCCCCCNC(=O)c1cc(O)ccc1O next
72 to 74 °C

Query Nc1nc(NC2Cc3ccccc3N(C(=O)c3ccccc3)C2)c2cn[nH]c2n1 (stereo not drawn) next
155 to 164 °C

Query CC(=O)c1cc(S(=O)(=O)c2cccc(F)c2)ccc1OC[C@@H]1CO1 next
113 to 115 °C

Query Cc1c(N2CC3(CC3)[C@](C)(N)C2)ccc2c(=O)c(C(=O)O)cn([C@@H]3C[C@@H]3F)c12 next
157 to 159 °C

----------
quantity_measured: melting point

[
  {
    "molecule": "C#CCCCOc1cc(C=O)ccc1OC",
    "melting point": "73 to 74 °C"
  }
]

Here's the next entry for you.
Name the recorded melting point for O=C1c2c(O)ccc(O)c2C(=O)c2c(NCCN=Cc3ccccc3)ccc(NCCN=Cc3ccccc3)c21 .
174 to 179 °C

----------
melting point values for the compounds below.

[
  {
    "compound": "OC(CCN1CCN(c2ccccc2)CC1)COc1ccccc1Cl (configuration not stated)",
    "melting point": "100 to 102 °C"
  },
  {
    "compound": "O=C(Nc1ccc(C(F)(F)F)cc1)NC1CCN(S(=O)(=O)c2cccc(C(F)(F)F)c2)CC1",
    "melting point": "246 to 251 °C"
  },
  {
    "compound": "Cc1ccc(Cl)c(C)c1NC(=O)N=C1NC(=O)CN1C",
    "melting point": "140 to 142 °C"
  }
]

Name the recorded melting point for C(=Cc1ccccc1)Cn1ccnc1 .
37 to 38 °C

Query N#Cc1cc(F)c(-c2ncnc(C(F)F)c2Cl)cc1[N+](=O)[O-] next
100 to 102 °C

Query CC(C)N1C(=O)N(c2ccc(F)cc2)CSC1=NC(C)(C)C next
109 to 110 °C

Query Cc1cc(Nc2ccccc2)nc(-n2nc(C)cc2C)n1 next
134 to 139 °C

Query CC(C)N1CCC(Nc2nc3cncnc3n2Cc2ccc(F)cc2)CC1 next
186 °C

Query CCC(C)Nc1c([N+](=O)[O-])cc(C)c(C)c1[N+](=O)[O-] (configuration not stated) next
37 to 38.5 °C

Query COC(=O)COc1cccc(-c2nc(COc3ccc(COc4nn(-c5ccccc5)cc4C=O)cc3OC)c(C)o2)c1 next
107 to 109 °C

Query Cc1ccc(C(=O)Cl)cc1OCc1ccccc1 next
49 to 51 °C

Query O=C1CCC(N2C(=O)c3ccccc3C2=O)C(=O)N1CO (configuration not stated) next
165 °C

Query CC(C)COC(=O)C1(c2onc(-c3ccc(O)cc3)c2-c2ccccc2)CC1 next
109 to 110 °C

Query CCCCC(=O)Nc1cccc(C(=O)OC)c1 next
101 to 102 °C

Query O=C(NCCCc1ccc(CO)cc1)c1ccc(-c2ccccn2)cc1 next
118 to 120 °C

Query COC(=O)CCc1sc(NC(=O)C[C@H]2O[C@H](c3cccc(OC)c3OC)c3cc(Cl)ccc3N(CC(C)(C)COC(C)=O)C2=O)nc1-c1ccccc1 next
168 °C

Query N#Cc1cc(-c2ccoc2)c2ccc(COc3cc(F)cc(-c4ccc(F)cc4)c3)cc2n1 next
177 to 180 °C

Query CNc1cc(C)ccc1C(C)=O next
47 °C

----------
quantity_measured: melting point

Use these answered entries as a reference point.
[
  {
    "compound": "CN1CCN(c2ccccc2C=C2NC(=O)N(c3ccc(Cl)cc3)C2=O)CC1",
    "melting point": "193 to 194 °C"
  },
  {
    "compound": "O=C(O)CCC(=O)NCCCCCC1CCSS1 (stereo not given)",
    "melting point": "74 °C"
  },
  {
    "compound": "CCn1c(=O)c2c(nc(/C=C/c3ccc(OCOC)c(OC)c3)n2C)n(CC)c1=O",
    "melting point": "179 to 181 °C"
  },
  {
    "compound": "O=C(O)COC1CCN(C(=O)CN2CCN(c3ccncc3)CC2)CC1",
    "melting point": "198 to 200 °C"
  },
  {
    "compound": "COc1ccc(Nc2ncccc2NS(=O)(=O)c2ccc(O)cc2)cc1",
    "melting point": "214 to 216 °C"
  },
  {
    "compound": "CSc1nc(NC2CCCCC2)c2nsnc2n1",
    "melting point": "134 to 136 °C"
  },
  {
    "compound": "O=[N+]([O-])c1ccc(F)cc1OC1C=CCC1 (stereo not given)",
    "melting point": "50.5 to 51 °C"
  },
  {
    "compound": "O=C(Oc1ccccc1)N1Cc2ccccc2C(c2ccccc2Cl)c2ccccc21 (stereo not given)",
    "melting point": "95 to 99 °C"
  },
  {
    "compound": "CN(CCc1ccc(Nc2ncc3c(n2)-c2ccccc2C(c2cccc(Br)c2)C3)cc1)CCc1ccccn1 (stereo not given)",
    "melting point": "75 to 77 °C"
  }
]

Name the recorded melting point for CN1CCC(NC2=Nc3ccccc3Cn3nnnc32)CC1 .
112 to 114 °C

Hello, the source for this data is a melting point compilation (Tetko et al.; mined from patent text by program, amines drawn as free bases though some values may be those of a salt), in case you need it.
